FYI, the data here is from the RNAGym collection of RNA variant scans (doi:10.1126/science.aae0568).

yeast fitness: recorded values
B1: tRNA (parent)
chain: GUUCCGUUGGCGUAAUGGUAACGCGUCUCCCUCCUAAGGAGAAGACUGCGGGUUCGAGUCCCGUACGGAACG

Variants of: B1
assay_info: yeast fitness relative to wild type (ratio to wild type); higher = fitter; tRNA-Arg(CCU), competitive growth, 37 C, YPD
Fewer inactive variants are shown than the library holds.

- A14G C24G C31U: ≤ 0.5
- U7A C33A G50A C61G: ≤ 0.5
- U8C A43C C66G: ≤ 0.5

Query: Reported yeast fitness for U26A G48A C49G A70U : what is it?
Reply: ≤ 0.5

Query: Reported yeast fitness for G9C A14C U19G A42U : what is it?
Reply: ≤ 0.5

Query: Reported yeast fitness for C11G C29A A40U G52A : what is it?
Reply: ≤ 0.5
